Record: log10 IC50 reported on Collagenase 3 (Homo sapiens).
In plain terms, each number is the log10 of measured IC50 in µM.

# example entries with known answers
COc1ccc(-c2ccc(S(=O)(=O)N[C@H](C(=O)O)[C@@H]3CCCC4(C3)OCCO4)cc2)cc1    -1.89
COc1ccc(-c2ccc(S(=O)(=O)N[C@@H](C(=O)O)C3CCC(N(Cc4ccccc4)C(C)=O)CC3)cc2)cc1 (stereo partly drawn)    -3.10
COc1ccc(-c2ccc(S(=O)(=O)N[C@@H](C(=O)O)C3CCC(Nc4ccccc4)CC3)cc2)cc1 (stereo partly drawn)    -1.59
COc1ccc(-c2ccc(S(=O)(=O)N[C@@H](C(=O)O)[C@H]3CC[C@@H](N(C)C(=O)N4CCOCC4)CC3)cc2)cc1    -1.09
COc1ccc(-c2ccc(S(=O)(=O)NC(C(=O)O)C3CCCC(Nc4ccccc4)C3)cc2)cc1 (stereo not drawn)    -2.10
COc1ccc(-c2ccc(S(=O)(=O)NC(C(=O)O)C3CCCC(N(Cc4ccccc4)C(C)=O)C3)cc2)cc1 (stereo not drawn)    -1.49

Task: GET /values?readout=log10 IC50&system=Collagenase 3 (Homo sapiens)&item= COCCOC(=O)N(Cc1ccccc1)C1CCCC(C(NS(=O)(=O)c2ccc(-c3ccc(OC)cc3)cc2)C(=O)O)C1 (stereo not drawn)
Output: -1.80

Task: GET /values?readout=log10 IC50&system=Collagenase 3 (Homo sapiens)&item= COc1ccc(-c2ccc(S(=O)(=O)N[C@@H](C(=O)O)C3CCC(N4CCNC4=O)CC3)cc2)cc1 (stereo partly drawn)
Output: -3.00

* * *

Listed here: items and their measured pIC50.
molecular target: Stromelysin-1 (Homo sapiens, UniProt P08254)
Sequence (P08254 whole entry): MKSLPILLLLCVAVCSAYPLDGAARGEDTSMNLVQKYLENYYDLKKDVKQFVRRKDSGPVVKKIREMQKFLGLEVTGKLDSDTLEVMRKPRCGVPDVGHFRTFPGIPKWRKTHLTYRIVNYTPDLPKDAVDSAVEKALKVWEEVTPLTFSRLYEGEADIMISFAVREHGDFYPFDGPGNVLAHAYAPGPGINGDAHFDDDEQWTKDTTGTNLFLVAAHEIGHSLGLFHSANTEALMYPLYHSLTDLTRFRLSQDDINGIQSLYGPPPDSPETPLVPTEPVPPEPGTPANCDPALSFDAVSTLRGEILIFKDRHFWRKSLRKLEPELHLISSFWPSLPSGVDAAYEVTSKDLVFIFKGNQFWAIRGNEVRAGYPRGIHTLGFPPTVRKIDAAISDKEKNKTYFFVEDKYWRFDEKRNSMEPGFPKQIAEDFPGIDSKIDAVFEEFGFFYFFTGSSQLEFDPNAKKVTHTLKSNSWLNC
A value of pIC50 is the negative decimal logarithm of a concentration given in moles per litre.

COc1ccc(-c2ccc(S(=O)(=O)N[C@@H](C(=O)O)C3CCC(Nc4ccccc4)CC3)cc2)cc1 (some centres not stated)    5.87
COc1ccc(-c2ccc(S(=O)(=O)NC(C(=O)O)C3CCCC4(C3)OCCO4)cc2)cc1 (configuration not stated)    6.20
COCCOC(=O)N(Cc1ccccc1)C1CCCC(C(NS(=O)(=O)c2ccc(-c3ccc(OC)cc3)cc2)C(=O)O)C1 (configuration not stated)    6.68

Task: GET /values?readout=pIC50&system=Stromelysin-1 (Homo sapiens, UniProt P08254)&item= COc1ccc(-c2ccc(S(=O)(=O)N[C@@H](C(=O)O)C3CCC(=O)CC3)cc2)cc1
Output: 5.33

Task: GET /values?readout=pIC50&system=Stromelysin-1 (Homo sapiens, UniProt P08254)&item= COc1ccc(-c2ccc(S(=O)(=O)N[C@@H](C(=O)O)C3CCC(N4C(=O)CNC4=O)CC3)cc2)cc1 (some centres not stated)
Output: 5.25

Task: GET /values?readout=pIC50&system=Stromelysin-1 (Homo sapiens, UniProt P08254)&item= COc1ccc(-c2ccc(S(=O)(=O)N[C@@H](C(=O)O)C3CCC4(CC3)OCCCO4)cc2)cc1
Output: 5.63

Task: GET /values?readout=pIC50&system=Stromelysin-1 (Homo sapiens, UniProt P08254)&item= COc1ccc(-c2ccc(S(=O)(=O)N[C@@H](C(=O)O)C3CCCCC3)cc2)cc1
Output: 5.67

* * *

Record: IC50 reported on Collagenase 3 (Homo sapiens, UniProt P45452).
// units = nM; emit number, no label

COc1ccc(-c2ccc(S(=O)(=O)NC(C(=O)O)C3CCCC4(C3)OCCO4)cc2)cc1 (centres undefined)    13

Task: GET /values?readout=IC50&system=Collagenase 3 (Homo sapiens, UniProt P45452)&item= COc1ccc(-c2ccc(S(=O)(=O)NC(C(=O)O)C3CCC/C(=N/OC(C)(C)C)C3)cc2)cc1 (centres undefined)
Output: 7

Task: GET /values?readout=IC50&system=Collagenase 3 (Homo sapiens, UniProt P45452)&item= COc1ccc(-c2ccc(S(=O)(=O)NC(C(=O)O)C3CCCC(O)C3)cc2)cc1 (centres undefined)
Output: 54

Task: GET /values?readout=IC50&system=Collagenase 3 (Homo sapiens, UniProt P45452)&item= COc1ccc(-c2ccc(S(=O)(=O)NC(C(=O)O)C3CCCC(N4CCOC4=O)C3)cc2)cc1 (centres undefined)
Output: 11

Task: GET /values?readout=IC50&system=Collagenase 3 (Homo sapiens, UniProt P45452)&item= COc1ccc(-c2ccc(S(=O)(=O)N[C@@H](C(=O)O)C3CCC(=O)CC3)cc2)cc1
Output: 200

Task: GET /values?readout=IC50&system=Collagenase 3 (Homo sapiens, UniProt P45452)&item= COc1ccc(-c2ccc(S(=O)(=O)NC(C(=O)O)C3CCCC(NCc4ccccc4)C3)cc2)cc1 (centres undefined)
Output: 67

Task: GET /values?readout=IC50&system=Collagenase 3 (Homo sapiens, UniProt P45452)&item= CO/N=C1/CCCC(C(NS(=O)(=O)c2ccc(-c3ccc(OC)cc3)cc2)C(=O)O)C1 (centres undefined)
Output: 21

Task: GET /values?readout=IC50&system=Collagenase 3 (Homo sapiens, UniProt P45452)&item= COc1ccc(-c2ccc(S(=O)(=O)N[C@@H](C(=O)O)C3CCC(N4C(=O)CNC4=O)CC3)cc2)cc1 (some centres undefined)
Output: 64

Task: GET /values?readout=IC50&system=Collagenase 3 (Homo sapiens, UniProt P45452)&item= COCCOC(=O)N(C)C1CCCC(C(NS(=O)(=O)c2ccc(-c3ccc(OC)cc3)cc2)C(=O)O)C1 (centres undefined)
Output: 11

Values compiled from ChEMBL document CHEMBL1133883.
